# EXPERIMENT NOTES: self-splicing fitness, log relative to wild type (ln ratio); higher = more splicing; Tetrahymena group I intron in knt gene, E. coli kanamycin selection, DiMSum; sequences stand for … in CUCUCU…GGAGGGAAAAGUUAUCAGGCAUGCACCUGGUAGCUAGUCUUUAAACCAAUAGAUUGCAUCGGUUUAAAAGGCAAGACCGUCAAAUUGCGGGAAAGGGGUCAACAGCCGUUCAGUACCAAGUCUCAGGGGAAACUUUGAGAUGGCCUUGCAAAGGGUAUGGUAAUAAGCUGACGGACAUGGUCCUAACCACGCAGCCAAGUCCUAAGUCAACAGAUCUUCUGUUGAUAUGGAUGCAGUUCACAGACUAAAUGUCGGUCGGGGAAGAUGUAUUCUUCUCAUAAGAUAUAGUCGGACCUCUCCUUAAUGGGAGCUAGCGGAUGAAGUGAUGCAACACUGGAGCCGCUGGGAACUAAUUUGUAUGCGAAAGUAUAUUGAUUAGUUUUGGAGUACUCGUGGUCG;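 note: selection with 25 µg/mL kanamycin versus none on LB agar overnight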
# ASSAY CONTEXT: 30 °C
READOUT LABEL: self-splicing fitness (ln)
# print the numeric value only

Query: Fill blank: measured self-splicing fitness (ln) of the sequence CACCAGCAAUAUUACGGCAG is ____.
Response: -0.179

Query: Query (sequence): UUUAAGCAAUAUUACGGCUU ; field requested: self-splicing fitness (ln)
Response: -1.8

Query: Which self-splicing fitness (ln) is reported for this sequence? ACAGAGCAAUAUUACGGAUU
Response: -3.67

Query: Requested field: self-splicing fitness (ln). Item: AAGUAGCAAUAUUACGGUUC
Response: -2.75

Query: Form field: reported self-splicing fitness (ln) of UACUAGCAAUAUUACGAACU
Response: -1.14

Query: For the sequence shown here, CUUCAGCAAUAUUACGUGGC , give the reported self-splicing fitness (ln).
Response: -2.61

Query: Could you share which self-splicing fitness (ln) value was measured for UCCGAGCAAUAUUACGGAAU ?
Response: -1.91

Query: What self-splicing fitness (ln) value was documented for this sequence, AUGAAGCAAUAUUACGCGAG ?
Response: -0.689

Query: Look at this sequence and give its reported self-splicing fitness (ln). CUUCAGCAAUAUUACGUAAC
Response: -2.65
